- Test system: MKN1 wild-type gastric cancer cell with KRAS-amplified
- ASSAY PROTOCOL: Proliferation inhibition on RAS cell lines measured by CTG, MKN1
- Assay type: cell-based
- EXPERIMENTAL CONTEXT: Table 1; MKN1 cells, incubated for 6 days, CellTiter Glo; read-out: IC50 (MKN1 ^e)
# IC50 annotations

| COMPOUND | TESTED TARGET | READOUT KIND | RESULT |
| --- | --- | --- | --- |
| C#Cc1c(F)ccc2cc(O)cc(-c3ncc4c(N5CCOCCN5)nc(OC[C@@]56CCCN5C[C@H](F)C6)nc4c3F)c12 | MKN1 wild-type gastric cancer cell with KRAS-amplified | IC50 | 100 to 1000 nM |

// below: IC50 requested for another compound
Kindly state the measured IC50 obtained for CCc1c(F)ccc2cc(O)cc(-c3ncc4c(N5CC(C)(O)CCN5)nc(OCC56CCCN5CC(F)C6)nc4c3F)c12 (single isomer, unassigned) with MKN1 wild-type gastric cancer cell with KRAS-amplified.
< 100 nM

From: patent US20240425512A1
